variants and their reported polymerase ribozyme fitness (log ratio)
B1: TPR t1 (parent)
chain: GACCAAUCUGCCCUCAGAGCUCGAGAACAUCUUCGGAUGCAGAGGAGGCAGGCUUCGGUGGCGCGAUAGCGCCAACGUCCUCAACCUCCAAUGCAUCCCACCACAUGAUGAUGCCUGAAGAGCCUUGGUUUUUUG

- Variants of: B1
- procedure_text: polymerase ribozyme fitness, log enrichment relative to wild type (log ratio); higher = more active; in vitro selection for triplet polymerase activity
readout: polymerase ribozyme fitness (log ratio)

INSERT INTO measurements (chain, result_value) VALUES
  ('GACCAAUCUGCUCUCAGAGCUCGAGAACAUCUUCGGAUGCAGAGGAGGCAGGCUUCGGUGCCGCGAUAGCGCCAACGUCCUCAACCUCCAAUGUAUCCCACCACAUGAUGAUGCCUGAAGAGCCUUGGUUUUUUG [C12U G61C C94U]', -0.805),
  ('GACCAAUCUGCCCUCUGAGCUCGAGAACAUCUUCGGAUGCAGAGGAGGCAGGCUUCGGUGGUGCGAUAGCGCCAACGUCCUCAACCUCCAAUGCAUCCCACCACAUGAUGAUGCCUGAAGAGCCUUGGUUUUUUG [A16U C62U]', -1.92),
  ('GACCAAUCUGCCCUCAGAGCUCGAGAACAUCUUCGGAUGCAGAGGAGGCAGGCUUUGGUGGCGCGAUAGCGCCAACGUCCUCAACCUCCAAGGCAUCCCACCACAUGAUGAUGCCUGAAGAGCCUUGGUUUUUUG [C56U U92G]', -2.12),
  ('GACCAAUCUGCCCUCAGAGCUCGAGAACAUCUUCGGAUGCAGAGGAGGCAGGUUUCGGUGGCGCGGUAGCGCCAACGUCCUCAACCUCCAAUGCAUCCCACCACAUGAUGAAGCCUGAAGAGCCUUGGUUUUUUG [C53U A66G U112A]', -0.539),
  ('GACCAAUCUGCCCUCAGAUCUCGAGAACAUCUUCGGAUGCAGAGGAGGCAGGCUUCGGUGCCGCGAUAGCGCCAACGUCCUCAACCUCCAAUGCAUCCCACCACAUGAUGAUGCCUGAAGAGCCUUGGUUUUUUG [G19U G61C]', -4.85),
  ('GACCAAUCUGCCCUCAGAGCUCGAGAACAUCUUCGGAUGCAGAGGCGGCAGGCUUCGGUGGCGCGAUAGCGCCAACGUCCUCAACCUCUAAUGCAUCCCACCACAUGAUGAUGCCUGAAGAGCCUUGGUUUUUUG [A46C C89U]', -0.611),
  ('GACCAAUCUGCCCUCAGAGCGCGAGAACAUCUUCGGAUGCAGAGGAGGCUGGCUUCGGUGGCGCGAUAGCGCCAACGUCCUCAACCUCCAAUGCAUCCCACCACAUGAUGAUGCCUGAAGAGCCUUGGUUUUUUG [U21G A50U]', -2.82),
  ('GACCAAUCUGCCCGCAGAGCUCGAGAACAUCUUCGGAUGCAGAGGAGGCAGGCUUCGGUCGCGCGAUAGUGCCAACGUCCUCAACCUCCAAUGCAUCCCACCACAUGAUGAUGCCUGAAGAGCCUUGGUUUUUUG [U14G G60C C70U]', -3.06),
  ('GAACAAUCUGCCCUCAGAGCUCGAGAACAUCUUCGGAUGCUGAGGAGGCAGGCUUCGGUGGCGCGAUAGAGCCAACGUCCUCAACCUCCACUGCAUCCCACCACAUGAUGAGGCCUGAAGAGCCGUUGUUUUUUG [C3A A41U C70A A91C U112G U125G G127U]', -4.59),
  ('GACCAAUCUGACCUCAGAGCUCGAGAACAUCUUCGGAUGCAGAGGAGGCAGGCUUCGGUGACGCGAUAGCGCCAACGUCCUCAACCUCCAAUACAUCCCAGCACAUGAUGAAGCCUGAAGAGCCUUGGUUUAUUG [C11A G61A G93A C101G U112A U132A]', -1.04),
  ('GACCAAUCUGCCCUCAGAGCUCGAGAACAUCUUCGGAUGCAGAGGAGGCAGGCUUCGGUGGGGCGAUAGCGCCAACGUCCUCAACCUCCAAUGUAUCCCACCACAUGAUGAUGCCUGAAGAGCCUUGGUUUUUUG [C62G C94U]', -1.28),
  ('GACCAAUCUGCCCUCAGAGCUCGAGAACAUCUUCGGAUGCAGAGGAGGCAGGCUUCGGUGGCGCGAUAGCGCCAACGUCCUCAACCUCCAAUGCAUCUCACCACAUGAUUAUGCCUGAAGAGCCUUGGUUUUUUG [C98U G110U]', -2.66),
  ('GACCAAUCUGCGCUCAGAGCUCGAGUACAUCUUUGGAUGCAUAUGAGGCAGGCUUCGGUGGGGCGAUAGCGCCAACGUCCUCAACCUCCAAUGCACCCCACCACAAGAAGAUGCGUGAAGAGCCUUGGUUUUUUG [C12G A26U C34U G42U G44U C62G U96C U106A U109A C115G]', -6.33),
  ('GACCAAUCUGCCCUCCGAGCUCGAGAACAUCUUCGGAUGCAGAGGAGGCAGGCUUCGGUGGCGCGAUAGCGCCAACGUCCUGAACCUCCAAUGCAUCCCACCACAUGAUGAUGCCUGAACAGCCUUGGUUUUUUG [A16C C82G G120C]', -1.47),
  ('GACCAAUCUGCCCUCAGAGCUCGAGAACAUCUUCGGAUGCAGAGGAGGCAGGCUUCGGUGGCGCGAUAGCGCCAACGUCCUCAACCUCGAAUGCAUCCCACCACAUGAUGAUGCCUGAAGAGCCUUAGUUUUUUG [C89G G127A]', -1.9),
  ('GACCAAUCUGCCCUCAGAGCUCGAGAACAUCUUCGGAUGCGGAGGAGGCAGGCUUCGGUGGCGCGAUAGCGCCAACGUCCUCAACCUCCAAUGCAUCCCACCAUAUGAUGAUGCCUGAAGAGCCUUGGUUUUUUG [A41G C104U]', 0.737),
  ('GACCAAUCUGCCCUCAGAGCUCGAGAACAUCUUCGGAUGCAGAGGAGGCAGGCUUCGGUGGCGCGAUAGCGCCAACGUCCUCAACCUCCAAUGCAUCCCACCACAUGAUGAUGCAUGAUGAGCCUUGGUUUUUUG [C115A A119U]', -1.26),
  ('GACCAAUCUGCCCUCAGAGCUCGAGAACAUCUUCGGAUGCAGAGGACGCAGGCUUCGGUGGCGCGAUAGCGCCAACGUCCUCAACCUCCAAUGCAUCCCACAACAUGAUGAUGCCUGAAGAGCCUUGGUUUUUUG [G47C C102A]', -3.89),
  ('GACCAAUCUGCACUCAGAGCUCGAGUACAUCUUCGGAUGCCGAGGAGGCAGGCUUCGGUGGCGCGAUAGCGCCAACGUCCUAAACCUCCAAUGCGUCCCAACACAUGAUGAUGCCUGAAAAGCCUUAGUUUUUUG [C12A A26U A41C C82A A95G C101A G120A G127A]', -5.86),
  ('GACCAAUCUGCCCUCAGAGCUCGAGAACAUCUUCGGAUGCAGAGGAGGAAGGCUUCGGUGGCGCGAUAGCGCCAACGUCCUCAACCUCCAAUGCAUCCCAGCACAUGAUGAUGCCUGAAGAGCCUUGGUUUUUUG [C49A C101G]', -2.23),
  ('GACCAAUCUGCCCUCAGAGCUCGAGAACAUCUUCGGAUGUAGAGGAGGCAGGCUUCGGUGGCGCGAUAGCACCAACGGCCUCAACCUCCAAUGCAUCCCACCACAUGAUGAUGCCUGAAGAGGCCUGGUUUUUUG [C40U G71A U78G C123G U125C]', -1.36),
  ('GACCAAUCUGCCGUCAGAGCUCGAGAACAUCUUCGGAUGCAGAGGAGGCAGGCUUCGGCGGCGCGAUAGCGCCAACGUCCUCAACCUCCAAUGCAUCCCACCACAUGAUGAUGCCUGAAGAGCAUUGGUUUUUUG [C13G U59C C124A]', 1.58);
